TARGET UNDER TEST: T1, 4H4001-bN
T1 chain: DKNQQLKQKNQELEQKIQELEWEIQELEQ
METHOD NOTES: two-hybrid library CCNG1;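 further: natural log of median RNA to DNA barcode read ratio; higher means stronger binding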
OBSERVABLE: interaction score

As a guide, the following entries are already answered.
1) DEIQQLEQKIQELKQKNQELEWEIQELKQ [4H370-bN] = -0.655
2) DKNQQLKQKIQELKQKNQELKWEIQELEQ [4H3961-bN] = -0.763
3) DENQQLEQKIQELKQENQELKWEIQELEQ [4H1369-bN] = -0.815

A. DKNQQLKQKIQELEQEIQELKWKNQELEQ [4H3855-bN]
B. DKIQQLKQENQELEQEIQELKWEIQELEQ [4H2697-bN]
C. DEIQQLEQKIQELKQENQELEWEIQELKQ [4H338-bN]
D. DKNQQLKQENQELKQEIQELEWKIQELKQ [4H3782-bN]
Write the entries in order, lowest recorded interaction score first. Output spec: a listing of the labels in the requested order.
B, C, D, A
